# Tested on: HCC-2998 colon
# measurementDescription: NCI tumour cell line growth inhibition, 48 h
observable: TGI

[[record]]
compound = "O=C1C2C3C=CC(C2C(=O)N1COP(=O)(O)O)C1C2C(=O)N(COP(=O)(O)O)C(=O)C2C31 (stereo not given)"
observable = "TGI"
valuereported = "> 100 µM"

[[record]]
compound = "Nc1nc(Cl)cc(NCCC2(CO)CCC2)n1"
observable = "TGI"
valuereported = "> 100 µM"

[[record]]
compound = "CC(=O)O[C@]1(C(C)=O)CC[C@H]2[C@@H]3C=C(C)C4=CC(=O)CC[C@]4(C)[C@H]3CC[C@@]21C"
observable = "TGI"
valuereported = "> 100 µM"

[[record]]
compound = "CCC1CN2CCc3c([nH]c4ccccc34)C2C[C@@H]1CC(=O)N(C)C (stereo not given in full)"
observable = "TGI"
valuereported = "> 100 µM"

[[record]]
compound = "Cc1c(COc2cc(OCc3cccc(C#N)c3)c(CN3C[C@H](O)C[C@@H]3C(=O)O)cc2Cl)cccc1-c1ccc2c(c1)OCCO2"
observable = "TGI"
valuereported = "29.2 µM"

